targetSystem: Genome polyprotein (West Nile virus) (UniProt P06935)
Sequence (P06935 1371-1501 limits assumed): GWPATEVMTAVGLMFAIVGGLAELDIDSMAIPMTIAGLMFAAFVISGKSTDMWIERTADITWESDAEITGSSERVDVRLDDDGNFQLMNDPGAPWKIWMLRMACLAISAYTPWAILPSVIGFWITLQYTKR
Sequence (P06935 1502-1679 limits assumed): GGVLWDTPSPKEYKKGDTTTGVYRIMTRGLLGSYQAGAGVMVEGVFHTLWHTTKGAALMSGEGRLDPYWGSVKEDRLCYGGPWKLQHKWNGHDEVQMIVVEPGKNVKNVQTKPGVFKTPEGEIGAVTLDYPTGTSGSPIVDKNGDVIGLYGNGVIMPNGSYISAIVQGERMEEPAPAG
assayDetails: West Nile NS2B-NS3 proteinase blockers – biochemical, fluorogenic substrate, primary screen (AID 577)
conditionParameters: WNV NS2B-NS3 protease, fluorogenic substrate Ex360/Em465; active compounds read low
About 120 (0.18%) of roughly 65,000 compounds were called active. Many of the other results were omitted from the sample, so actives are more common in it than they were.
Reported z-score values for a set of compounds
Please reply with the value in numeric form only.

{"compound": "CC(NC(=O)c1ccc(Cl)cc1)C(=O)N1CCCCC1 (stereo unspecified)", "targetSystem": "Genome polyprotein (West Nile virus) (UniProt P06935)", "z-score": -0.48}
{"compound": "CCN(CC(=O)NC(C)C)C(=O)CCNC(=O)c1ccc(Cl)cc1", "targetSystem": "Genome polyprotein (West Nile virus) (UniProt P06935)", "z-score": -3.81}
{"compound": "O=c1[nH][nH]c(=O)c2cc(N3CCCC3)ccc12", "targetSystem": "Genome polyprotein (West Nile virus) (UniProt P06935)", "z-score": 0.92}
{"compound": "O=C(O)C1CC(=O)N(Cc2cccnc2)C1 (stereo unspecified)", "targetSystem": "Genome polyprotein (West Nile virus) (UniProt P06935)", "z-score": -0.77}
{"compound": "CCOC(=O)N1CCN(CC(=O)c2ccc3c(c2)CCN3)CC1", "targetSystem": "Genome polyprotein (West Nile virus) (UniProt P06935)", "z-score": -0.8}

We now examine a further compound.
Prompt line: Please report z-score for the following compound: `Cc1cc(C)c(C)c(S(=O)(=O)Nc2ccc(O)cc2)c1C`
Response line: -1.62

----------
targetSystem: Genome polyprotein (West Nile virus) (UniProt P06935)
assayDetails: West Nile NS2B-NS3 proteinase blockers – biochemical, fluorogenic substrate, primary screen (AID 577)
conditionParameters: WNV NS2B-NS3 protease, fluorogenic substrate Ex360/Em465; active compounds read low
The whole screen tested about 65,000 compounds, of which about 120 (0.18%) were called active. Shown is part of a subset that was picked to be rich in actives.
recordedEndpoint: z-score
Keep the answer to the number alone.

Would you please look over these solved cases?
{"compound": "Nc1cc(OC(=O)c2ccccc2Br)nn1S(=O)(=O)c1ccccc1", "z-score": -6.2}
{"compound": "CC(=O)N1CSCC1C(=O)O (configuration not stated)", "z-score": -5.15}
{"compound": "CN(C)c1nc(N)nc(CSc2nnnn2-c2cccc3ccccc23)n1", "z-score": -0.13}
{"compound": "CCC(C(=O)N1CCOCC1)n1c(C(=O)OC)cc2occc21 (configuration not stated)", "z-score": -1.12}
{"compound": "CCOC(=O)C1CCCN(C(=O)Cn2ncc3c(=O)oc4ccc(C)cc4c32)C1 (configuration not stated)", "z-score": -0.8}
{"compound": "CCOC1CCCCC1NS(=O)(=O)c1ccc(Cl)cc1 (configuration not stated)", "z-score": -0.25}
{"compound": "O=C(Nc1ccccc1N1CCCCC1)c1ccc2nccnc2c1", "z-score": -0.92}
{"compound": "O=S(=O)(CCc1nc2ccccc2o1)c1ccc(Cl)cc1", "z-score": 0.84}

Prompt line: Respond only with z-score recorded for `CCc1nc2oc3ccccc3c(=O)c2c(=O)n1Cc1ccc(OC)cc1`
Response line: -0.51

Prompt line: Provide only the value of recorded z-score for `CCC(=O)N1CCN=C1SCc1ccc(F)cc1`
Response line: 0.56

Prompt line: Given the compound `Cc1ccc(S(=O)(=O)n2nc(OC(=O)C(C)(C)C)cc2N)cc1` , write its reported z-score.
Response line: 0.18

Prompt line: Specify reported z-score for the compound shown: Cc1nn(Cc2ccccc2)c(Cl)c1C(=O)OC1CCOC1=O (configuration not stated)
Response line: 0.09

----------
targetSystem: Genome polyprotein (West Nile virus) (UniProt P06935)
assayDetails: West Nile NS2B-NS3 proteinase blockers – biochemical, fluorogenic substrate, primary screen (AID 577)
conditionParameters: WNV NS2B-NS3 protease, fluorogenic substrate Ex360/Em465; active compounds read low
About 120 (0.18%) of roughly 65,000 compounds were called active. What follows is part of a selection rich in actives, with near analogues and random picks from the rest.
recordedEndpoint: z-score
Lab note: record just the number, no unit beside it.

{"compound": "CCCS(=O)(=O)N1CCCC(C(=O)N2CCN(c3ccccc3)CC2)C1 (stereo unspecified)", "z-score": 0.81}
{"compound": "O=C(NCc1ccco1)C1CCCN(S(=O)(=O)c2cnc[nH]2)C1 (stereo unspecified)", "z-score": 0.15}
{"compound": "CCn1cc(C(=O)NCc2ccc(OC)cc2OC)c(=O)c2ccc(C)nc21", "z-score": 0.31}

Prompt line: Find the measured z-score of `COc1ccc(NC(=O)CN(C)S(=O)(=O)c2ccccc2)cc1OC` with Genome polyprotein (West Nile virus) (UniProt P06935) as test system.
Response line: -0.74

Prompt line: Output reported z-score of the compound `CC(C)CNS(=O)(=O)c1ccc(OCC(=O)Nc2ccc3c(c2)OCO3)c(Cl)c1` on Genome polyprotein (West Nile virus) (UniProt P06935).
Response line: 0.53

Prompt line: Give measured z-score for `Cc1ccc(-n2c(Cc3cccs3)nnc2SCC(=O)OC(C)C)cc1` (Genome polyprotein (West Nile virus) (UniProt P06935)).
Response line: -0.91

----------
targetSystem: Genome polyprotein (West Nile virus)
assayDetails: West Nile NS2B-NS3 proteinase blockers – biochemical, fluorogenic substrate, primary screen (AID 577)
conditionParameters: WNV NS2B-NS3 protease, fluorogenic substrate Ex360/Em465; active compounds read low
Hit rate of the full screen: of about 65,000 compounds, about 120 (0.18%) were called active. The full list was thinned out, with actives kept by preference.
Recorded z-score determines the label; the label ranges are bucket 1 (below -0.5), bucket 2 (-0.5 to below 0.2), bucket 3 (0.2 or more)

Consider the worked cases shown below.
{"compound": "O=C(Nc1cccc(Cl)c1)OCc1ccccn1", "answerLabel": "bucket 3"}
{"compound": "COCc1cc(C)nc(SCC(=O)Nc2cccc(C)c2)c1C#N", "answerLabel": "bucket 3"}
{"compound": "COc1cccc(-c2nn(C)c3sc(C(=O)N4CCN(c5ccccc5)CC4)cc23)c1", "answerLabel": "bucket 2"}
{"compound": "CC(NC(=O)CN1CCN(Cc2ccc(Cl)cc2)C1=O)c1ccc2c(c1)OCCO2 (configuration not stated)", "answerLabel": "bucket 3"}
{"compound": "C=C(C)COc1ccc(-c2n[nH]c(C)c2-c2ccccc2OC)c(O)c1", "answerLabel": "bucket 2"}
{"compound": "COc1ccc(-n2c(SCC(=O)Nc3ccc4c(c3)OCO4)nnc2C(C)N2CCCCC2)cc1 (configuration not stated)", "answerLabel": "bucket 1"}
{"compound": "CC(=O)N(Cc1cccs1)C1CCOC(C)(C)C1 (configuration not stated)", "answerLabel": "bucket 2"}
{"compound": "CCOc1ccccc1Nc1nnc(SCC(=O)Nc2cc(C)on2)s1", "answerLabel": "bucket 1"}

Prompt line: For `CCn1cc(C(=O)NC2CCCCCC2)c(=O)c2cc(S(=O)(=O)N3CCCCC3)ccc21` , which z-score bin applies?
Response line: bucket 1

Prompt line: Lab note: sort `CC(=O)N1C(=O)C2(Nc3ccccc3N2)c2ccccc21` into the matching z-score band.
Response line: bucket 2

Prompt line: Lab note: sort O=C(NCC1CCCO1)C(C(=O)c1ccccc1)n1cc(Cl)ccc1=O (configuration not stated) into the matching z-score band.
Response line: bucket 1

Prompt line: For the record Cc1ccc(NC(=O)C2CC(c3ccc(F)cc3)=NO2)cc1 (configuration not stated) , report the class its z-score corresponds to.
Response line: bucket 2

Prompt line: Categorize the following entry: `CC(C)c1ccc(NS(=O)(=O)c2cn(C)c(=O)n(C)c2=O)cc1`
Response line: bucket 1

Prompt line: Hey, which category is CCC(C)(NC(=O)c1ccccn1)C(=O)NC1CCCCC1 (configuration not stated) in, do you know?
Response line: bucket 3

Prompt line: // bin(item) where item = `COc1ccc(CCNC(=O)CSc2nnc(-c3cccc(F)c3)o2)cc1OC`
Response line: bucket 3

Prompt line: Please indicate the class for `Cn1c(=O)cc(OCCCC(=O)N2CCN(Cc3ccc4c(c3)OCO4)CC2)c2ccccc21` based on its z-score.
Response line: bucket 2

----------
targetSystem: Genome polyprotein (West Nile virus)
assayDetails: West Nile NS2B-NS3 proteinase blockers – biochemical, fluorogenic substrate, primary screen (AID 577)
conditionParameters: WNV NS2B-NS3 protease, fluorogenic substrate Ex360/Em465; active compounds read low
About 120 (0.18%) of roughly 65,000 compounds were called active. Shown is part of a subset that was picked to be rich in actives.
Labelling: z-score reported below 1 becomes y; at or above becomes n.

Consider the worked cases shown below.
{"molecule": "Cc1ccc(NC(=O)C2CCCN(S(=O)(=O)c3c(C)noc3C)C2)c(C)c1 (centres undefined)", "answerLabel": "y"}
{"molecule": "Cc1c(C(=O)NCC2CCCO2)sc2nc(-c3ccccc3)cn12 (centres undefined)", "answerLabel": "y"}
{"molecule": "O=C(NCc1ccco1)c1ccc(CS(=O)(=O)Cc2ccc(F)cc2)o1", "answerLabel": "y"}
{"molecule": "CC(C)n1c(C(O)c2ccccc2)nc2ccccc21 (centres undefined)", "answerLabel": "y"}
{"molecule": "C=CCOc1ccc(/C=N/n2cncn2)cc1OC", "answerLabel": "n"}

Prompt line: Would you kindly verify if z-score of `Clc1ccc(C=NC23CN4CN(CN(C4)C2)C3)cc1` is strictly less than 1?
Response line: n

Prompt line: Here's an entry: `CC1CCN(c2nc3c(c(=O)[nH]c(=O)n3C)n2CCCc2ccccc2)CC1` . Is its z-score below 1?
Response line: y

Prompt line: Is z-score strictly under 1 for the entry `CNC(=O)n1ccc(C(=O)N2CCCCC2)n1` ?
Response line: n

Prompt line: Determine if `CC(=O)N1CC2(C)CN(C(C)=O)CC(C)(C1)C2=O` shows z-score strictly lower than 1.
Response line: y
